Data credit: PubChem BioAssay (NCI)

# System: HOP-62 NSCLC
# experimentalProtocol: NCI tumour cell line growth inhibition, 48 h
measurementType: TGI (µM)
Reply with just the number (in µM).

The examples below pair each entry with its known result.
[[record]]
compound = "CCOC(=O)NNC1(SC)NC(=O)c2c(cc(Cl)oc2=O)O1 (stereo not given)"
unitlabel = "µM"
recordedmeasurement = 25.6

[[record]]
compound = "O=C(Nc1ccncc1)C(=O)c1cn(S(=O)(=O)c2ccccc2F)c2ccccc12"
unitlabel = "µM"
recordedmeasurement = 34.3

[[record]]
compound = "COc1cccc2c1C(=O)c1ccc3cc(CO)cc(O)c3c1C2=O"
unitlabel = "µM"
recordedmeasurement = 6.33

[[record]]
compound = "Cc1ccc(NC(=S)NNC(=O)c2cc(-c3ccccc3)nc3ccccc23)cc1C"
unitlabel = "µM"
recordedmeasurement = 54.8


Could you now look at the following compound, please?
Record "C#CC[C@H](c1nc2cc(Cl)ccc2c(=O)n1Nc1ccccc1)N(CCCN)C(=O)c1cccc(Cl)c1F" . Reported TGI: 2.23

----------
Below, each entry is listed alongside its reported TGI.
# Tested on: MDA-N
# experimentalProtocol: NCI tumour cell line growth inhibition, 48 h
Reply with just the number (in µM).

The examples below pair each entry with its known result.
[[record]]
molecule = "C=CCC1(O)c2cccc(O)c2C(=O)c2cccc(O)c21 (stereo not given)"
recordedmeasurement = 31.1

[[record]]
molecule = "O=C(c1ccco1)N1CCN(C(=O)c2ccco2)C1=S"
recordedmeasurement = 22.6

[[record]]
molecule = "CC1(C)N=C(N)N=C(N)N1c1ccc(CCCCc2ccc(Cl)cc2Cl)cc1"
recordedmeasurement = 2.67


Could you now look at the following molecule, please?
Record "O=C(/C(Cl)=C/c1ccccc1)c1ccccc1" . Reported TGI: 4.52

----------
# Test system: NCI-H23 lung
# experimentalProtocol: NCI tumour cell line growth inhibition, 48 h
measurementType: TGI (µM)
Reply with just the number (in µM).

The examples below pair each entry with its known result.
[[record]]
molecule = "CN(C)CCCn1c2c3ccccc3ccc2c2oc(=O)c3ccccc3c21"
recordedmeasurement = 13.1

[[record]]
molecule = "COC1CC(OS(=O)(=O)c2ccc(C)cc2)C(OS(=O)(=O)c2ccc(C)cc2)C(COS(=O)(=O)c2ccc(C)cc2)O1 (centres undefined)"
recordedmeasurement = 15.6

[[record]]
molecule = "C=CC1(CBr)CCC(C(C)(C)Br)O1 (centres undefined)"
recordedmeasurement = 19.9


Record CC1=CC[C@H](C)C(C)(C)C1/C=C/C(C)=C/CC[C@@]1(CO)[C@H](CCCO)/C(=C(/C)C=O)CC[C@]1(C)O (some centres undefined) . Reported TGI: 23

----------
# Tested on: NCI-H522 lung
# experimentalProtocol: NCI tumour cell line growth inhibition, 48 h; in the data active = GI50 below about 0.43 µM; inactive = the rest
// one of T = active, F = inactive, no free text

Before answering, review these 5 worked examples.
[[record]]
mol = "O=C1C(Cl)=C(N2CCOCC2)C(=O)c2ccccc21"
classname = "F"

[[record]]
mol = "CN1CCN(Cc2ccc(NC(=O)c3[nH]ncc3Nc3ncnc4c3CCC4)cc2)CC1"
classname = "F"

[[record]]
mol = "Cc1nc(Nc2ccc(F)c(Cl)c2)sc1C(=O)O"
classname = "F"

[[record]]
mol = "Cc1ccc(NC2=C(Sc3ccc(Cl)cc3)C(=O)N(Cc3ccccc3)C2=O)cc1Cl"
classname = "F"

[[record]]
mol = "COc1cc(-c2cc(-c3nc4ccccc4[nH]3)[nH]n2)cc(OC)c1OC"
classname = "F"


Then this compound:
Exercise: Tell me the assay call for "O=C(CNC(=O)c1cccc2ccccc12)Nc1ccccc1Oc1ccccc1" please.
Key: T
